Test: Single intravenous dose escalation of P5P, plasma pharmacokinetics (Examples Two and Three)
Format: in vivo, human
Conditions: both sexes, human, plasma, iv, 1 mg/kg, Group 1, P5P 1 mg/kg single iv; plasma P5P; mean
Procedure: A phase one clinical trial was conducted to compare the pharmacokinetics of intravenously administered P5P and orally administered P5P. The trial was a single dose escalation study. […] P5P, pyridoxal, and 4-pyridoxic acid were evaluated in both plasma and urine over a 24 hour interval following either intravenous or oral dosing. […] Concentrations of pyridoxal-5′-phosphate (P5P) were measured from the plasma samples collected over a 24-bour interval after dosing in each phase. […]
Property Name: clearance (mL/min)
The figure you give is taken to be in mL/min; do not add the unit.

Prompt line: Quote clearance reported for Cc1ncc(COP(=O)(O)O)c(C=O)c1O [P5P, Pyridoxal 5′-phosphate, reference compound] please.
Response line: 29.3
